Target: T1, interleukin 18 binding protein (IL-18BP) (UniProt O95998 31-194)
T1 sequence (looked up): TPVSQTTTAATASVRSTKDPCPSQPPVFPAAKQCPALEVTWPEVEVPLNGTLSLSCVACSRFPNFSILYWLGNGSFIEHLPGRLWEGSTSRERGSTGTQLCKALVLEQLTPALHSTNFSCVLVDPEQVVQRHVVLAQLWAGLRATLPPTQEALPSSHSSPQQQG
Test: cell-based or functional assay
recordedMetric: Ratio (-BP/+BP), DF-100,000

IL-18 variant K53H, S55Y (ligand) YFGKLESKLSVIRNLNDQVLFIDQGNRPLFEDMTDSDMRDNAPRTIFIISMYHDYQPRGMAVTISVKSEKISTLSSENKIISFKEMNPPDNIKDTKSDIIFFQRSVPGHDNKMQFESSSYEGYFLASEKERDLFKLILKKEDELGDRSIMFTVQNED: 0.99
IL-18 variant T34N, S36N, D40E, N41G, K53S, S55Q, R104N, H109Y (ligand) YFGKLESKLSVIRNLNDQVLFIDQGNRPLFEDMNDNDMREGAPRTIFIISMYSDQQPRGMAVTISVKSEKISTLSSENKIISFKEMNPPDNIKDTKSDIIFFQNSVPGYDNKMQFESSSYEGYFLASEKERDLFKLILKKEDELGDRSIMFTVQNED: 1.01
IL-18 variant K53G, S55P, R104K, H109Y (ligand) YFGKLESKLSVIRNLNDQVLFIDQGNRPLFEDMTDSDMRDNAPRTIFIISMYGDPQPRGMAVTISVKSEKISTLSSENKIISFKEMNPPDNIKDTKSDIIFFQKSVPGYDNKMQFESSSYEGYFLASEKERDLFKLILKKEDELGDRSIMFTVQNED: 1.3

Tell me its Ratio (-BP/+BP), DF-100,000 given IL-18 variant K53H, S55Q (ligand) YFGKLESKLSVIRNLNDQVLFIDQGNRPLFEDMTDSDMRDNAPRTIFIISMYHDQQPRGMAVTISVKSEKISTLSSENKIISFKEMNPPDNIKDTKSDIIFFQRSVPGHDNKMQFESSSYEGYFLASEKERDLFKLILKKEDELGDRSIMFTVQNED as the entry. 1.03

Give me measured Ratio (-BP/+BP), DF-100,000, please, for this binder: IL-18 variant K53L, S55E (ligand) YFGKLESKLSVIRNLNDQVLFIDQGNRPLFEDMTDSDMRDNAPRTIFIISMYLDEQPRGMAVTISVKSEKISTLSSENKIISFKEMNPPDNIKDTKSDIIFFQRSVPGHDNKMQFESSSYEGYFLASEKERDLFKLILKKEDELGDRSIMFTVQNED 1.07

Write down Ratio (-BP/+BP), DF-100,000 measured for item IL-18 variant K53N, S55H, H109F (ligand) YFGKLESKLSVIRNLNDQVLFIDQGNRPLFEDMTDSDMRDNAPRTIFIISMYNDHQPRGMAVTISVKSEKISTLSSENKIISFKEMNPPDNIKDTKSDIIFFQRSVPGFDNKMQFESSSYEGYFLASEKERDLFKLILKKEDELGDRSIMFTVQNED 1.06
